SYSTEM: Tyrosinase (Mus musculus) (UniProt P11344)
Sequence (P11344 whole entry): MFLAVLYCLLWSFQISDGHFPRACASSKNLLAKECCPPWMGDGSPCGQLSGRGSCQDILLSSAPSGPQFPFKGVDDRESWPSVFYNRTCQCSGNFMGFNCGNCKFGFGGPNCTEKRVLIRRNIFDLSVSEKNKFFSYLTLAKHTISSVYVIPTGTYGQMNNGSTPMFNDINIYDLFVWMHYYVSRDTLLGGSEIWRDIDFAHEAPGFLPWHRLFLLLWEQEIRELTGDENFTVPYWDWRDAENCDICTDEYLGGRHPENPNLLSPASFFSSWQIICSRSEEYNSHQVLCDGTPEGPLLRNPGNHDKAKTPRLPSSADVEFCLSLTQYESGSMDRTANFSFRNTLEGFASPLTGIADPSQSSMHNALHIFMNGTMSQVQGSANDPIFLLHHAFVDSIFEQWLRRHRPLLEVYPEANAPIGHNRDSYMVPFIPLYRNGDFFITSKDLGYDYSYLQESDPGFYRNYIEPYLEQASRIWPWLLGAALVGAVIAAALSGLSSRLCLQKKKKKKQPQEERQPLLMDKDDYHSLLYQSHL
EXPERIMENT_SUMMARY: Inhibition of tyrosinase in mouse B16F10 cells assessed as reduction of melanin production at 20 ug/ml after 72 hrs
Type: cell-based
COND: B16-F10
METRIC_NAME: inhibition (%)

// below: answered compounds
INSERT INTO results (smiles_string, metric_name, readout_value) VALUES
  ('Cn1c2ccccc2c2cc(/C=C/C(=O)c3cccc(NC(=O)c4cccc(F)c4)c3)ccc21', 'inhibition', 20.6),
  ('Cc1cccc(C(=O)Nc2cccc(C(=O)/C=C/c3ccc4c(c3)c3ccccc3n4C)c2)c1', 'inhibition', 21.7),
  ('Cn1c2ccccc2c2cc(/C=C/C(=O)c3cccc(NC(=O)c4ccc(F)cc4)c3)ccc21', 'inhibition', 24),
  ('Cn1c2ccccc2c2cc(/C=C/C(=O)c3cccc(NC(=O)c4ccc(C(C)(C)C)cc4)c3)ccc21', 'inhibition', 11.6),
  ('Cn1c2ccccc2c2cc(/C=C/C(=O)c3cccc(NC(=O)c4ccccc4F)c3)ccc21', 'inhibition', 40.5),
  ('Cn1c2ccccc2c2cc(/C=C/C(=O)c3cccc(NC(=O)c4ccc(Cl)cc4)c3)ccc21', 'inhibition', 36.1),
  ('CC(=O)Nc1cccc(C(=O)/C=C/c2ccc3c(c2)c2ccccc2n3C)c1', 'inhibition', 15.6);

P = Cn1c2ccccc2c2cc(/C=C/C(=O)c3cccc(NC(=O)c4ccccc4)c3)ccc21
Q = Cn1c2ccccc2c2cc(/C=C/C(=O)c3cccc(NC(=O)c4cccc(Br)c4)c3)ccc21
## Input Of P and Q , whose reported inhibition is numerically smaller? Bench note: the answer is the label of the chosen record.
## Output Q

###

Form: system (Tyrosinase (Agaricus bisporus)), quantity (IC50), values below.
METRIC_NAME: IC50 (µM)

// below: answered compounds
INSERT INTO assay_data (smiles_string, unit_name, readout_value) VALUES
  ('Cn1c2ccccc2c2cc(/C=C/C(=O)c3cccc(NC(=O)C4CC4)c3)ccc21', 'µM', 80.2),
  ('Cn1c2ccccc2c2cc(/C=C/C(=O)c3cccc(NC(=O)c4ccc(F)cc4)c3)ccc21', 'µM', 15.1);

A = Cn1c2ccccc2c2cc(/C=C/C(=O)c3cccc(N)c3)ccc21
B = Cn1c2ccccc2c2cc(/C=C/C(=O)c3cccc(NC(=O)c4ccccc4F)c3)ccc21
## Input Of A and B , whose reported IC50 is numerically smaller? Bench note: the answer is the label of the chosen record.
## Output B
(B: 18.2 µM, A: 48.2 µM)

###

SYSTEM: Xanthine dehydrogenase/oxidase (Bos taurus, UniProt P80457)
Sequence (P80457 whole entry): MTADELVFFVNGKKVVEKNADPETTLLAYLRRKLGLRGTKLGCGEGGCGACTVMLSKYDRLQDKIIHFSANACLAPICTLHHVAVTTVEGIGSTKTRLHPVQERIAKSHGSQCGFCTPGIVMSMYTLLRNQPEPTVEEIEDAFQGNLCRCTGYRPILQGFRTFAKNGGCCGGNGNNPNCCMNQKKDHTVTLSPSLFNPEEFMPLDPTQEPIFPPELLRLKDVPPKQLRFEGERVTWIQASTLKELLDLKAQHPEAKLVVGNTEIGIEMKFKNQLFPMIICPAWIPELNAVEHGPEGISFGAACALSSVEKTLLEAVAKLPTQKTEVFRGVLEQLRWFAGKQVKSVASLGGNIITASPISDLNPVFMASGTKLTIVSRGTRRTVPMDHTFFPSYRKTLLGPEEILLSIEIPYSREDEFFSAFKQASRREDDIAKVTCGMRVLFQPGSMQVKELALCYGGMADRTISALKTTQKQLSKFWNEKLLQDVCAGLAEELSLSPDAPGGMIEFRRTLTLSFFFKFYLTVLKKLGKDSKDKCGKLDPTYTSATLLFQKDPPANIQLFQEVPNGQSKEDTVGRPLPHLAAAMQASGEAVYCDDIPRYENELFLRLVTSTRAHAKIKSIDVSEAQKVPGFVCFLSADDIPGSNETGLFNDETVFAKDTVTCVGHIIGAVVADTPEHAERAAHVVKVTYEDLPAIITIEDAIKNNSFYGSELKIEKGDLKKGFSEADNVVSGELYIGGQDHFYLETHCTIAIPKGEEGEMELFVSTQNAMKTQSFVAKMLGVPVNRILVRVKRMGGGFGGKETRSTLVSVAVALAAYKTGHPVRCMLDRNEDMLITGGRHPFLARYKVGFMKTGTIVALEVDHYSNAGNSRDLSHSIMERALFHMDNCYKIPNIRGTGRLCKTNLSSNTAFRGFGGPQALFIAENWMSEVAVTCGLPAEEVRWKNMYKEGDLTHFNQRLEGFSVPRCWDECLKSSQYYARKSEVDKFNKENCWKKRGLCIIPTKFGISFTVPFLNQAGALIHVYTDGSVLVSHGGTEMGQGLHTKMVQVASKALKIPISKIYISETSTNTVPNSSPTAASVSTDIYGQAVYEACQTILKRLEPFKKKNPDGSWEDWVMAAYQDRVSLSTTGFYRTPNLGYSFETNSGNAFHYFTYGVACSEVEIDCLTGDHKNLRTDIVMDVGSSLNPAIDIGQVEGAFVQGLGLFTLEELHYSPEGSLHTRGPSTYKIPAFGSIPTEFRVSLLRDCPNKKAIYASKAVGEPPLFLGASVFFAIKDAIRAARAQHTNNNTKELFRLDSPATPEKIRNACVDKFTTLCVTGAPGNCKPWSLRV
METRIC_NAME: IC50 (µM)

// below: answered molecules
INSERT INTO measurements (smiles_string, system, readout_value) VALUES
  ('Cn1c2ccccc2c2cc(/C=C/C(=O)c3cccc(NC(=O)c4cccc(Br)c4)c3)ccc21', 'Xanthine dehydrogenase/oxidase (Bos taurus, UniProt P80457)', 88.2),
  ('Cn1c2ccccc2c2cc(/C=C/C(=O)c3cccc(NC(=O)c4ccccc4)c3)ccc21', 'Xanthine dehydrogenase/oxidase (Bos taurus, UniProt P80457)', 42.7),
  ('Cn1c2ccccc2c2cc(/C=C/C(=O)c3cccc(NC(=O)c4ccc(Cl)cc4)c3)ccc21', 'Xanthine dehydrogenase/oxidase (Bos taurus, UniProt P80457)', 5.6);

a = Cn1c2ccccc2c2cc(/C=C/C(=O)c3cccc(NC(=O)c4ccc(F)cc4)c3)ccc21
b = Cn1c2ccccc2c2cc(/C=C/C(=O)c3cccc(NC(=O)/C=C/c4ccccc4)c3)ccc21
## Input Of a and b , whose reported IC50 is numerically smaller? Bench note: the answer is the label of the chosen record.
## Output b
